- Target entity: Fibrinogen C domain-containing protein 1 (Homo sapiens)
- Procedure text: Binding affinity to V5-His tagged FIBCD1 ecto-domain (54 to 461 residues) (unknown origin) assessed as reduction in binding between FIBCD1 and acetylated BSA by ELISA relative to control
Measured attribute: Ratio

P = CC(=O)N[C@@H]1[C@@H](O)[C@@H](O)[C@@H](CO)O[C@@H]1O
Q = N[C@H]1[C@H]([C@H](O)[C@H](O)CO)OC(O)(C(=O)O)C[C@@H]1O (some centres undefined)
R = CC(=O)O
S = CC(=O)OCC[N+](C)(C)C
Sort ascending by Ratio. As an answer, provide the labels arranged in the order called for. S, P, R, Q
